# half-life annotations
test: Half life in human liver microsomes; format: ADME

# Chemical Structure, half-life (min)
data = [
    ("O=C(/C=C/c1cc(Cl)ccc1-n1cnnn1)N[C@@H](Cc1ccccc1)c1nc(-c2ccc3c(c2)CCC(=O)N3)c(Cl)[nH]1", 48),
    ("COC(=O)Nc1ccc(-c2nc([C@H](CC(=O)N3CCS(=O)(=O)CC3)NC(=O)/C=C/c3cc(Cl)ccc3-n3cnnn3)[nH]c2Cl)cc1", 154),
    ("Cc1ccc(-n2cnnn2)c(CCC(=O)N[C@@H](Cc2ccccc2)c2nc(-c3ccc4[nH]c(=O)ccc4c3)c(Cl)[nH]2)c1", 2.2),
    ("COC(=O)Nc1ccc(-c2nc([C@H](Cc3ccccc3)NC(=O)/C=C/c3cc(Cl)ccc3-n3cnnn3)[nH]c2Cl)cc1", 46),
    ("COC(=O)Nc1ccc(-c2nc([C@H](CC(=O)N3CCN(C)CC3)NC(=O)/C=C/c3cc(Cl)ccc3-n3cnnn3)[nH]c2Cl)cc1", 25),
    ("Cc1ccc(-n2cnnn2)c(CCC(=O)N[C@@H](Cc2ccccc2)c2nc(-c3ccc4[nH]c(=O)cc(O)c4c3)c(Cl)[nH]2)c1", 10),
    ("O=C(CCc1cc(Cl)ccc1-n1cnnn1)N[C@@H](Cc1ccccc1)c1nc(-c2ccc3[nH]c(=O)cc(O)c3c2)c(Cl)[nH]1", 6.6),
]
